Test system: MOLT-4 leukemia
Experiment: NCI-60 one-dose screen, 48 h (100 = growth as untreated, 0 = no growth, -100 = all killed)
Conditions: 10 µM unless noted
The panel holds about 83,000 compounds, 20% with a hit somewhere; the sample as a whole holds those more often. Activity calls are given as the source filed them. Rule for the calls: active = growth percent below 10; inactive = the rest.
READOUT_NAME: growth

Use these answered entries as a reference point.
Query: Consider the compound shown here: `COc1ccc(OC)c(-c2cc(-c3ccc(Cl)cc3)c3c(N)c(C(=O)c4ccc(Cl)cc4)sc3n2)c1` What is its recorded growth?
Reply: 103% (inactive)

Query: Could you share which growth value was measured for `Nc1ccccc1NC(=O)c1ccc(-n2nc(-c3ccccc3)c3ccccc32)cc1` ?
Reply: 4.66% (active)

Query: Recorded growth of CN(C)CC(O)c1ccc(/C=C/c2ccc(Cl)cc2)cc1 (stereo unspecified) , please.
Reply: -29.7% (active)

Query: Could you share which growth value was measured for `O=C(Nc1ccc(F)cc1)Nc1ccc(NC(=O)c2cc(Cl)nc3ccccc23)cc1` ?
Reply: 64.2% (inactive)

Query: // returns reported growth for input `[O-][n+]1c(Cl)cc(Cl)c2ccccc21`
Reply: 88.7% (inactive)

New cases:
Query: # lookup: growth of `O=C(Nc1ncc(Cc2cc(Cl)ccc2Cl)s1)c1cccs1`
Reply: 63.2% (inactive)

Query: Fill blank: measured growth of the compound `CN[C@@H](C)C(=O)N[C@H]1CCS[C@H]2CC(C)(C)[C@@H](C(=O)N[C@H]3c4ccccc4C[C@H]3OCC#CC#CCO[C@@H]3Cc4ccccc4[C@@H]3NC(=O)[C@H]3N4C(=O)[C@@H](NC(=O)[C@H](C)NC)CCS[C@H]4CC3(C)C)N2C1=O` is ____.
Reply: 95.5% (inactive)

Query: Returns the measured growth for the input compound. Input: O=C(C1CCC1)N1N=C(c2ccc(-n3ccc(C(F)(F)F)n3)cc2)CC1c1ccc[nH]1 (stereo unspecified)
Reply: 74.8% (inactive)

Query: May I ask what growth has been recorded for `Cc1cccc(-c2cn3ccnc3c(-c3ccc4ncn(Cc5ccccc5)c4c3)n2)c1` ?
Reply: 63.1% (inactive)

Query: Would you kindly share the measured growth for `Cc1nc(N)nc(N[C@@H](C)c2nc3cccc(NCc4ccc(C(=O)NO)cc4)c3c(=O)n2-c2ccccc2)n1` ?
Reply: 32.9% (inactive)

Query: Quick check: growth of `CN1CCN(C(=O)[C@]23CCC(C)(C)C[C@H]2C2=CC[C@@H]4[C@@]5(C)C/C(=C/c6cccnc6)C(=O)C(C)(C)[C@@H]5CC[C@@]4(C)[C@]2(C)CC3)CC1` ?
Reply: 20.5% (inactive)

Query: Name the reported growth value associated with the compound `COc1cc2c(=O)n(CCCN(C)C)c3c4cc5c(cc4ccc3c2cc1OC)OCO5`
Reply: -9.29% (active)

Query: // returns reported growth for input `CCOC(=O)[C@@H]1CCCN(S(=O)(=O)c2ccc(S(=O)(=O)N(CC)CC)c(F)c2)C1`
Reply: 79.4% (inactive)

Query: Data request, read-out growth, for `COc1cc2c(-c3cc4c(cc3CNCCc3ccc5c(c3)OCO5)OCO4)cccc2c(OC)c1O`
Reply: 56.5% (inactive)

Query: // query growth value for entry CC(Oc1ccc(C(=O)O)cc1C(F)(F)F)c1ccc(Oc2ccccc2)cn1 (stereo unspecified)
Reply: 106% (inactive)

Query: What does the record list as growth for `COc1ccc2c(c1)oc1c(C)c3c(c(C)c12)C(=O)N(N)C3=O` ?
Reply: 17.4% (inactive)

Query: // returns reported growth for input `NC(=NCCCOc1ccc(F)cc1)Nc1ccc(Cl)cc1`
Reply: 23.5% (inactive)

Query: Name the reported growth value associated with the compound `CCc1ccc(CNc2ccc(N3CCOCC3)c(C(=O)O)c2)cc1`
Reply: 99.2% (inactive)

Query: Can you share its growth? I mean this compound: `C=C1C(=O)O[C@H]2[C@H]1CC/C(COC(=O)NCc1c[nH]c3ccc(F)cc13)=C\CC[C@@]1(C)O[C@@H]21`
Reply: 3.81% (active)

Query: State the recorded growth for this entry: `O=C(Cc1ccc(/C=C/C(=O)c2ncc[nH]2)cc1)Nc1ccc(Cl)cc1`
Reply: 5.1% (active)

Query: Endpoint output: growth of `CCCCCN1C=C/C(=C\C(=O)n2ccc3ccccc32)c2ccccc21` . Value?
Reply: 90% (inactive)

Query: GET /values?readout=growth&item= `O=c1ccc(-c2nc(N3CCOCC3)c3ccccc3n2)c[nH]1`
Reply: 110% (inactive)

Query: For `C[C@H]1[C@H](C)CC[C@]2(C(=O)NCC#CCN3CCN(C)CC3)CC[C@]3(C)C(=CC[C@@H]4[C@@]5(C)Cc6c([nH]c7ccccc67)C(C)(C)[C@@H]5CC[C@]43C)[C@H]12` , what is its reported growth?
Reply: 44.6% (inactive)

Query: Look up growth for this compound: `O=C(N/N=C/c1cc2ccccc2n2nnnc12)Nc1ccccc1`
Reply: 101% (inactive)

Query: Which growth value is on record for `N#Cc1c(NC(=O)NCc2ccccc2)sc2c1CCCC2` ?
Reply: 17.7% (inactive)

Query: Can you look up the measured growth of `C#CCNC(=O)[C@H](Cc1ccccc1)NC(=O)[C@]12CC[C@@H](C(=C)C)[C@@H]1[C@H]1CC[C@@H]3[C@@]4(C)CCC(=O)C(C)(C)[C@@H]4CC[C@@]3(C)[C@]1(C)CC2` for me?
Reply: 46.3% (inactive)

Query: Tell me the measured growth of `N#C/C(=C\c1ccc(C(F)(F)F)cc1)c1cc2ccccc2[nH]1` , please.
Reply: 91.5% (inactive)

Query: Any idea what growth was measured for `COc1ccc(C(=O)c2nc3ccccc3n2CC(=O)c2ccc(Cl)cc2)cc1` ?
Reply: 17.2% (inactive)

---

Here the recorded growth is given for each entry.
Test system: SK-MEL-28 melanoma
Test: NCI-60 one-dose screen, 48 h (100 = growth as untreated, 0 = no growth, -100 = all killed)
Conditions: 10 µM unless noted
Compounds without any hit were thinned out: in the full panel of roughly 83,000, 20% have a hit.
Give the value, in units of %, as a plain number.

Query: Look at this compound and give its reported growth. `O=C(O)c1ccc(-c2nn(-c3ccc(C(F)(F)F)cc3)cc2CNc2ccc(Oc3ccccc3)cc2)cc1`
Reply: 89.1

Query: Which growth is listed for `C=CCn1c(-c2ccc(-c3nc4ccc(C)cc4[nH]3)cc2)n[nH]c1=S` ?
Reply: 100

Query: # growth lookup, item NC(=S)N1N=C(c2ccccc2)CC1c1cn(-c2ccccc2)nc1-c1ccc(OCc2ccccc2)cc1 (centres undefined)
Reply: 112

Query: Which growth value belongs to `O=C(Cc1ccccc1)NNc1nc(Cl)nc(N2CCN(C(c3ccccc3)c3ccccc3)CC2)n1` ?
Reply: 101

Query: Could you share which growth value was measured for `CCOC(=O)C1=C(C)NC(SCc2cc(=O)oc3ccc(F)cc23)=N[C@@H]1c1cccc2ccccc12` ?
Reply: 109

---
Query: Give its growth value. Item: `O=C(/C=C/c1ccc(F)cc1)c1ccc(NC(=O)N2CCN(c3cc4c(cc3F)c(=O)c(C(=O)O)cn4C3CC3)CC2)cc1`
Reply: 90.6

Query: Given the entry CCN(CC)CCCC(C)Nc1cc(O)cc2cccnc12 (centres undefined) , report its measured growth.
Reply: 122

Query: # input compound: `CC/C(=C\c1ccc(OC)cc1)C(=O)c1ccc(OC)cc1` ; wanted: its growth
Reply: 106

Query: Record request: growth value, item `O=C1Nc2cc(Cl)ccc2/C1=C\c1c(-c2ccc(F)cc2)nc2ccccn12`
Reply: 28.2

---

Quick reference for growth among some molecules
Test system: SK-OV-3 ovarian
Experiment: NCI-60 one-dose screen, 48 h (100 = growth as untreated, 0 = no growth, -100 = all killed)
Details: 10 µM unless noted
Compounds without any hit were thinned out: in the full panel of roughly 83,000, 20% have a hit. Active and inactive are the calls of the source. How the source made its calls: active means growth percent below 10; inactive means the rest.

Solved entries:
Query: Any idea what growth came out for `Nc1n[nH]c2cccc(C#Cc3cccc(C(=O)Nc4cc(CN5CCOCC5)cc(C(F)(F)F)c4)c3)c12` on SK-OV-3 ovarian?
Reply: 82.9% (inactive)

Query: Please state recorded growth (tested on SK-OV-3 ovarian) of C=C1C(=O)O[C@H]2[C@H]1CC/C(COC(=O)NCC(C)c1ccc(CC(C)C)cc1)=C\CC[C@@]1(C)O[C@@H]21 (stereo partly drawn)
Reply: 100% (inactive)

Query: Request - read-out growth | tested on SK-OV-3 ovarian | molecule `COc1cc2oc(-c3cccc(C(=O)Nc4ccccc4)c3)cc(=O)c2c(O)c1OC`
Reply: 15% (inactive)

Query: Given the entry `COc1cccc(-c2cc(C(=O)Nc3ccc(/C=C/c4ccc(OC5CCN(C)CC5)cc4)cc3)ccc2OC)c1` , what growth was observed with SK-OV-3 ovarian?
Reply: 109% (inactive)

Query: # returns recorded growth (system: SK-OV-3 ovarian) for `O=C(NCCNc1nccc(-c2c(-c3cccc(F)c3)nc3sccn23)n1)c1ccc(Cl)cc1`
Reply: 80.9% (inactive)

More entries:
Query: Find the measured growth: item `CCCCCC(=O)Oc1ccc(/C(=C(/C)Cc2ccc(OC)cc2)c2ccc(OCCCN(C)C)cc2)cc1` , target or system SK-OV-3 ovarian.
Reply: 81.5% (inactive)

Query: Please state recorded growth (tested on SK-OV-3 ovarian) of `COc1ccc(OC)c(-c2cc(-c3ccc(Cl)cc3)c3c(N)c(C(=O)c4ccc(Cl)cc4)sc3n2)c1`
Reply: 89.8% (inactive)

Query: So what growth did `Cc1ccc(-n2c3c(c(-c4ccccc4)c2-c2ccccc2)C2=NCCN2C=N3)cc1` get with SK-OV-3 ovarian?
Reply: 94.7% (inactive)

Query: // map `Cc1ccccc1NS(=O)(=O)c1cccc(C(=O)Nc2ccc(Br)cc2)c1` to recorded growth (system: SK-OV-3 ovarian)
Reply: 46.3% [25 µM] (inactive)

Query: Checklist item: growth tested on SK-OV-3 ovarian, entry `Cn1ccnc1C(=O)/C=C/c1ccc(CC(=O)NC2CCCCC2)cc1` , value?
Reply: 92.9% (inactive)

Query: Notebook entry, SK-OV-3 ovarian assay: growth of `COc1cc2c(-c3cc4c(cc3CNCCc3ccc5c(c3)OCO5)OCO4)cccc2c(OC)c1O` = ?
Reply: 99.6% (inactive)
